test: Pharmacokinetics of ZA in pig serum after IV or SC infusion with or without rHuPH20 (LC-MS-MS, non-compartmental analysis); format: in vivo; settings: female, Yorkshire, pig, serum, sc, […], pig 59; SC ZA […], 100 mL over 16 min, no rHuPH20; read-out: Vss/F
outcome-measure: Vd/F (L/kg)

# chemical-smiles, value-observed
records = [
    ("O=P(O)(O)C(O)(Cn1ccnc1)P(=O)(O)O", 0.617),
]

* * *

test: Pharmacokinetics of ZA in pig serum after IV or SC infusion with or without rHuPH20 (LC-MS-MS, non-compartmental analysis); format: in vivo; conditions: female, Yorkshire, pig, serum, subcutaneous, […], Time 3 h; pig ID 59; Study Group 2; SC; ZA […]; 100 mL, 16 min; rHuPH20 0 U/mL; read-out: Zoledronic Acid Serum Concentration

# molecule, concentration at 3 h / ng/mL
measured = [
    ("O=P(O)(O)C(O)(Cn1ccnc1)P(=O)(O)O [ZA]", 13.3),
]

* * *

assay: Pharmacokinetics of ZA in pig serum after IV or SC infusion with or without rHuPH20 (LC-MS-MS, non-compartmental analysis); assay type: in vivo; conditions: female, Yorkshire, pig, serum, subcutaneous, […], Time 4 h; pig ID 70; Study Group 2; SC; ZA […]; 10 mL, 1.6 min; rHuPH20 0 U/mL; read-out: Zoledronic Acid Serum Concentration
outcome-measure: concentration at 4 h (ng/mL)

# molecule, value-observed
rows = [
    ("O=P(O)(O)C(O)(Cn1ccnc1)P(=O)(O)O [ZA]", 9.47),
]

* * *

Experiment: Pharmacokinetics of ZA in pig serum after IV or SC infusion with or without rHuPH20 (LC-MS-MS, non-compartmental analysis)
Format: in vivo
Conditions: female, Yorkshire, pig, serum, subcutaneous, […], Time 0.5 h; pig ID 59; Study Group 2; SC; ZA […]; 100 mL, 16 min; rHuPH20 0 U/mL; read-out: Zoledronic Acid Serum Concentration
Protocol: A pharmacokinetic study of zoledronic acid (ZA) co-administered with rHuPH20 in female Yorkshire swines was conducted. […] Serum concentration of ZA was determined using a qualified LC-MS-MS assay after derivatization with diazomethane (Zhu, L S et al. (2006) Rapid Commun. Mass Spectrom. 20: 3421-3426; “Qualification Data of An LC-MS/MS Method for the Determination of Zoledronate in Porcine Serum”, MDS Pharma Services Study No. AA43671-01, Report Date 14 Sep. 2007). […]

# chemical-smiles, concentration at 0.5 h, ng/mL
measured = [
    ("O=P(O)(O)C(O)(Cn1ccnc1)P(=O)(O)O", 120),
]

* * *

experiment: Pharmacokinetics of ZA in pig serum after IV or SC infusion with or without rHuPH20 (LC-MS-MS, non-compartmental analysis); assay type: in vivo; conditions: female, Yorkshire, pig, serum, subcutaneous, […], pig 64, Study Group 3, SC, ZA […], rHuPH20 10000 U/mL, 100 mL over 16 min, time 0.5 h; read-out: Zoledronic Acid Serum Concentration

# chemical-smiles, concentration at 0.5 h [ng/mL]
data = [
    ("O=P(O)(O)C(O)(Cn1ccnc1)P(=O)(O)O", 197),
]

* * *

test: Phase 1 Stage 1 clinical pharmacokinetics of SC ZA co-administered with rHuPH20; format: in vivo, human; conditions: human, serum, sc, serum; ZA 5 mg SC infusion + 24000 Units rHuPH20; 0 h post infusion; n=3; read-out: Median Conc.

# chemical-smiles, concentration at 0 h
data = [
    ("O=P(O)(O)C(O)(Cn1ccnc1)P(=O)(O)O", "82.3 ng/mL"),
]
